target: Calpain-1 catalytic subunit (Homo sapiens, UniProt P07384); test: Inhibition of intracellular Calpain-I receptor using intact cell assay system
Sequence (P07384 whole entry): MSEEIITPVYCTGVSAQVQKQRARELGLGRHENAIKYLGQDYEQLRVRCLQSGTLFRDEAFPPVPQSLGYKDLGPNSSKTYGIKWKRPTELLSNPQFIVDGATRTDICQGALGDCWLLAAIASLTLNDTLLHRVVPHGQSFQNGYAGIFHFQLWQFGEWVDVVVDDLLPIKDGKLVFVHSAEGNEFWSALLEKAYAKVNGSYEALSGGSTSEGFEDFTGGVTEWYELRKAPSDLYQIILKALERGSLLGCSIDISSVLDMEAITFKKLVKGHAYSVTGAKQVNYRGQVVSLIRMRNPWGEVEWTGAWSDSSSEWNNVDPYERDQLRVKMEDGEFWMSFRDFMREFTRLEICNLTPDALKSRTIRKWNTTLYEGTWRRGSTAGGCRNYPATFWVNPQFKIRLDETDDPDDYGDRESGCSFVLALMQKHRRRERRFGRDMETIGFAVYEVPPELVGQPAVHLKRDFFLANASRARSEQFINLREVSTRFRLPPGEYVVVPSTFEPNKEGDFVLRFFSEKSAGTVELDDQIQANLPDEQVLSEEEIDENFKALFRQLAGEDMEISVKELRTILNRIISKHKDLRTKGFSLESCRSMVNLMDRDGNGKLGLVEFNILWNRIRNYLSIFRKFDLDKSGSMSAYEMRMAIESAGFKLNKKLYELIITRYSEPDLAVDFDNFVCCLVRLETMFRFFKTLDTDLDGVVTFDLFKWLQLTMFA
Square brackets hold non-standard residues; d marks the D form. Peptide text beside a SMILES is read from it. * marks the point of attachment. d2Thi = N[C@H](Cc1cccs1)C(=O)O; Bn = c1ccc(C*)cc1; Ms = CS(=O)(=O)*
value.kind: pIC50
For clarity, pIC50 is expressed as the negative log10 of concentration in mol/L.

get_value(item= CS(=O)(=O)N[C@H](COCc1ccccc1)C(=O)N[C@H](C=O)Cc1ccc(OCc2ccccc2)cc1 (Ms-[dS](Bn)-Tyr(Bn)-aldehyde) , readout=pIC50) returns 6.15

get_value(item= CCS(=O)(=O)N[C@H](COCc1ccccc1)C(=O)N[C@H](C=O)Cc1ccccc1 , readout=pIC50) returns 6.40

get_value(item= CS(=O)(=O)N[C@H](CSCc1ccccc1)C(=O)N[C@H](C=O)Cc1ccccc1 (Ms-[dC](Bn)-Phe-aldehyde) , readout=pIC50) returns 6.10

get_value(item= CS(=O)(=O)N[C@H](COCc1ccccc1)C(=O)N[C@H](C=O)Cc1ccccc1 , readout=pIC50) returns 6.15

get_value(item= CS(=O)(=O)N[C@H](Cc1ccccc1)C(=O)N[C@H](C=O)Cc1ccccc1 (Ms-[dF]-Phe-aldehyde) , readout=pIC50) returns 6.22

get_value(item= CS(=O)(=O)N[C@H](Cc1cccs1)C(=O)N[C@H](C=O)Cc1ccccc1 (Ms-[d2Thi]-Phe-aldehyde) , readout=pIC50) returns 6.52

get_value(item= CC(OCc1ccccc1)[C@@H](NS(C)(=O)=O)C(=O)N[C@H](C=O)Cc1ccccc1 (stereo partly drawn) , readout=pIC50) returns 6.30

get_value(item= CS(=O)(=O)N[C@H](COCc1ccccc1)C(=O)N[C@H](C=O)CCCCNS(=O)(=O)c1ccccc1 , readout=pIC50) returns 6.40
